target_entity: AChE (Electrophorus electricus, UniProt O42275)
Construct: native enzyme, Type V-S lyophilized powder, Sigma-Aldrich
Sequence (O42275 24-633): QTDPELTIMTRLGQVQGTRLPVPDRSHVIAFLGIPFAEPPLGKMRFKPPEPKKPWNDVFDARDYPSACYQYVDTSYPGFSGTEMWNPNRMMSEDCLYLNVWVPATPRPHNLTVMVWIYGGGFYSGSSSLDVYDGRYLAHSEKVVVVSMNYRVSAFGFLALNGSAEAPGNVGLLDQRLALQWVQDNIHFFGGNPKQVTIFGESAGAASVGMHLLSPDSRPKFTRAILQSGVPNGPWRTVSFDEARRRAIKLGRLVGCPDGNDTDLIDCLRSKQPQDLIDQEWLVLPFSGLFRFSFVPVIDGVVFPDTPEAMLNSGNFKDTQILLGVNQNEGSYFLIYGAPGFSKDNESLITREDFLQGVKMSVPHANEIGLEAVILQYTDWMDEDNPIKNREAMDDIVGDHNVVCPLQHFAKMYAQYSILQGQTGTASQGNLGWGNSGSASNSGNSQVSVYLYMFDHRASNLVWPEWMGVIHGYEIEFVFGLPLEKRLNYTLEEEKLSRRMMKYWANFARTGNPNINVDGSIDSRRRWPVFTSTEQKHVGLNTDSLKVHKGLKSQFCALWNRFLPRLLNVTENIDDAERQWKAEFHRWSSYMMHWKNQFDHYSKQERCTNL
run_description: Ellman colorimetric assay
Type: biochemical
measurement_conditions: read-out: IC50 ± SD / AChE ^a
Entries and their IC50

compound | IC50
O=C(NC1CCCC1)Oc1ccc2[nH]cc(CCN(Cc3ccccc3)Cc3ccccc3)c2c1 [2g] | > 100 µM
O=C(Oc1ccc2[nH]cc(CCN(Cc3ccccc3)Cc3ccccc3)c2c1)N1CCCC1 [2r] | > 100 µM
CCCN(CCC)C(=O)Oc1ccc2[nH]cc(CCN(Cc3ccccc3)Cc3ccccc3)c2c1 [2l] | > 100 µM

###

target_entity: UniProt P81908
Sequence (P81908 whole entry): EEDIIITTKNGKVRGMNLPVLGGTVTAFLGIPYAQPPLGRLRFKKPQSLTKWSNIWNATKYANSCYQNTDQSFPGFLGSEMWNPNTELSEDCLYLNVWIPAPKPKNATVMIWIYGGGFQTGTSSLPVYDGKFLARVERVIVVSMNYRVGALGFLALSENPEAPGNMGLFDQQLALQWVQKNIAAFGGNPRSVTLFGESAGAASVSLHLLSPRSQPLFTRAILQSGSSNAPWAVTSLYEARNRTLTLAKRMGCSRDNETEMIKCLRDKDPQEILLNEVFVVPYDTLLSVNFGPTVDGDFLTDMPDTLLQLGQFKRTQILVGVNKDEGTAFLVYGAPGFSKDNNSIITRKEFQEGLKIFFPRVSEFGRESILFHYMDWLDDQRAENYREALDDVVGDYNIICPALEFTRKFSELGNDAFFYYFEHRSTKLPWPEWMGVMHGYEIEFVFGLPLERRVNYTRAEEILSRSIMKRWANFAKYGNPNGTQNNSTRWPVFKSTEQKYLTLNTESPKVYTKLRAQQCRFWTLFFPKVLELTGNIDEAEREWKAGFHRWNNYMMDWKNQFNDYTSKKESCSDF
run_description: Ellman colorimetric assay
Assay type: biochemical
Parameters: gene BCHE; native enzyme from equine serum, purchased from Sigma-Aldrich
measurement_conditions: read-out: IC50 ± SD ^a / BuChE ^a
pIC50: −log10 of the molar value.
endpoint: pIC50

compound | reported_value
O=C(Oc1ccc2[nH]cc(CCNCc3ccccc3)c2c1)N(c1ccccc1)c1ccccc1 [3n] | 6.81
CCCCNC(=O)Oc1ccc2[nH]cc(CCNCc3ccccc3)c2c1 [3b] | 7.63
O=C(Oc1ccc2[nH]cc(CCNCc3ccccc3)c2c1)N1CCOCC1 [3u] | 6.95
O=C(Oc1ccc2[nH]cc(CCNCc3ccccc3)c2c1)N1CCCC1 [3r] | 7.39
O=C(Oc1ccc2[nH]cc(CCNCc3ccccc3)c2c1)N1CCC1 [3q] | 8.59
O=C(NC1CCCC1)Oc1ccc2[nH]cc(CCNCc3ccccc3)c2c1 [3g] | 7.87
CN(C(=O)Oc1ccc2[nH]cc(CCNCc3ccccc3)c2c1)c1ccccc1 [3p] | 7.59
O=C(NC1CCCCC1)Oc1ccc2[nH]cc(CCNCc3ccccc3)c2c1 [3h] | 7.36
CCCN(CCC)C(=O)Oc1ccc2[nH]cc(CCNCc3ccccc3)c2c1 [3l] | 7.36

###

run_description: in vitro
Set-up: MTT cytotoxicity, absorbance at 570 nm, HT-22 mouse hippocampal neuronal cells
measurement_conditions: mouse, ht-22; read-out: IC50 ± SD / HT-22 ^a

compound | CC50 at 24 h
CN(C)C(=O)Oc1ccc2[nH]cc(CCN(Cc3ccccc3)Cc3ccccc3)c2c1 | > 100 µM
CN(C(=O)Oc1ccc2[nH]cc(CCN(Cc3ccccc3)Cc3ccccc3)c2c1)c1ccccc1 | > 100 µM
O=C(Oc1ccc2[nH]cc(CCN(Cc3ccccc3)Cc3ccccc3)c2c1)N(c1ccccc1)c1ccccc1 | > 100 µM

Just for reference, paper PMC9742383 is where these values come from.
